Ref: patent US20210130436A1

- tgt: T1, human PD-L1 on CHO cells (human, UniProt Q9NZQ7 19-290)
- T1 construct: whole, on cells; CHO cells stably expressing PD-L1; also called huPD-L1
- method notes: flow cytometry, CHO cells stably expressing PD-L1
recorded endpoint: MFI at 33.3 nM (MFI)

INSERT INTO results (binder, recorded_endpoint, measurement_unit, reading) VALUES
  ('variant CD80 IgV-Fc E35D/D46E/L85M (Fc fusion, not shown: a dimerising Fc or GST) VIHVTKEVKEVATLSCGHNVSVEELAQTRIYWQKDKKMVLTMMSGEMNIWPEYKNRTIFDITNNLSIVILALRPSDEGTYECVVMKYEKDAFKREHLAEVTLSVKAD', 'MFI at 33.3 nM', 'MFI', 2880),
  ('variant CD80 IgV-Fc M43I/M47L/A71G (Fc fusion, not shown: a dimerising Fc or GST) VIHVTKEVKEVATLSCGHNVSVEELAQTRIYWQKEKKMVLTMISGDLNIWPEYKNRTIFDITNNLSIVILGLRPSDEGTYECVVLKYEKDAFKREHLAEVTLSVKAD', 'MFI at 33.3 nM', 'MFI', 7760);

[A] variant CD80 IgV-Fc E35D/M43I/M47L/L85M (Fc fusion, not shown: a dimerising Fc or GST) VIHVTKEVKEVATLSCGHNVSVEELAQTRIYWQKDKKMVLTMISGDLNIWPEYKNRTIFDITNNLSIVILALRPSDEGTYECVVMKYEKDAFKREHLAEVTLSVKAD
[B] variant CD80 IgV-Fc E35D/L97R (Fc fusion, not shown: a dimerising Fc or GST) VIHVTKEVKEVATLSCGHNVSVEELAQTRIYWQKDKKMVLTMMSGDMNIWPEYKNRTIFDITNNLSIVILALRPSDEGTYECVVLKYEKDAFKREHRAEVTLSVKAD
// compare measured MFI at 33.3 nM, left A , right B , return larger Label of pick, please. A
(A: 4880 MFI, B: 2610 MFI)
